TESTED ON: human P2X3 receptor (Homo sapiens, UniProt P56373)
Sequence (P56373 1-397): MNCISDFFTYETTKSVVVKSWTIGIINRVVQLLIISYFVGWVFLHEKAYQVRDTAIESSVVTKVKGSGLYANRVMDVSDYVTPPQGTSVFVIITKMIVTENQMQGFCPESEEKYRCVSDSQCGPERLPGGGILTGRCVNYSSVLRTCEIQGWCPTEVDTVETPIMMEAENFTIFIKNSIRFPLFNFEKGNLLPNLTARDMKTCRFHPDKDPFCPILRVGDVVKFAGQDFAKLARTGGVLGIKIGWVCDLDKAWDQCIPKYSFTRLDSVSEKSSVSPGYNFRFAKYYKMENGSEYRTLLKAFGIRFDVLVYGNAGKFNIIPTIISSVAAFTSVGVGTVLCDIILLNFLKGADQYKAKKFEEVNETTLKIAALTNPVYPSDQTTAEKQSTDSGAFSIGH
EXPERIMENTAL DETAILS: Intracellular calcium measurement to assess antagonist activity at human P2X3 receptors (hP2X3 FLIPR)
Assay type: cell-based
Parameters: expressed in transfected cells; host or cells: human astrocytoma 1321N1 (1312N1 [sic])
ASSAY CONTEXT: head prints (1321N1); read-out: 1) hP2X3 IC50 [nM] (1321N1)
ENDPOINT LABEL: IC50 (nM)
Write the number in nM without appending the unit.

Q: Dear colleague, I am looking for the recorded IC50 of the following compound: CC(C)(C)c1cc2n(CC(=O)Nc3ccc(F)cn3)c3c(c(=O)n2n1)CN(CCN1CCOCC1)C3=O [Example 138]
Result: 56

Q: Dear colleague, I am looking for the recorded IC50 of the following compound: CC[C@H](C)N1Cc2c(n(CC(=O)Nc3ccc(F)cn3)c3cc(C)nn3c2=O)C1=O [Example 53]
Result: 133

Q: Dear colleague, I am looking for the recorded IC50 of the following compound: CCc1cc2n(CC(=O)Nc3ccc(F)cn3)c3c(c(=O)n2n1)CN([C@@H](C)COC)C3=O [Example 46]
Result: 28

Q: Dear colleague, I am looking for the recorded IC50 of the following compound: CC(C)(C)c1cc2n(CC(=O)Nc3ccc(F)cn3)c3c(c(=O)n2n1)CN(CCO)C3=O [Example 135]
Result: 40

====

TESTED ON: human P2X3 receptor (Homo sapiens)
EXPERIMENTAL DETAILS: Intracellular calcium measurement, antagonist activity at human P2X3 receptors (hP2X3 1321N1), Fluo8
Assay type: cell-based
Parameters: expressed in transfected cells; host or cells: human astrocytoma 1321N1 (1312N1 [sic])
ASSAY CONTEXT: column 3); 1321N1 cells, human P2X3, Fluo8, agonist ATP at EC50
ENDPOINT LABEL: log10(IC50) (log10 of the value in nM)
A difference of one corresponds to tenfold IC50; all values are log10 with IC50 in nM.

Q: Dear colleague, I am looking for the recorded log10(IC50) of the following compound: CC(C)(C)c1cc2n(CC(=O)Nc3ccc(F)cn3)c3c(c(=O)n2n1)CN(C1CCOCC1)C3=O
Result: 2.47

Q: Dear colleague, I am looking for the recorded log10(IC50) of the following compound: CC(C)N1Cc2c(n(CC(=O)Nc3ccc(F)cn3)c3cc(C4CCN(S(=O)(=O)CC(F)(F)F)C4)nn3c2=O)C1=O (stereo not shown)
Result: 1.56

Q: Dear colleague, I am looking for the recorded log10(IC50) of the following compound: CC(C)N1Cc2c(n(CC(=O)Nc3ccc(F)cn3)c3cc(C4CCNC4)nn3c2=O)C1=O.Cl (racemic)
Result: 2.53

Q: Dear colleague, I am looking for the recorded log10(IC50) of the following compound: CCc1cc2n(CC(=O)Nc3ccc(F)cn3)c3c(c(=O)n2n1)CN(C[C@H]1CN(C2CCC2)CCO1)C3=O
Result: 1.76

Q: Dear colleague, I am looking for the recorded log10(IC50) of the following compound: CC(C)N1Cc2c(n(CC(=O)Nc3ccc(F)cn3)c3cc(NC4CCCC4)nn3c2=O)C1=O
Result: 0.95

Q: Dear colleague, I am looking for the recorded log10(IC50) of the following compound: CCc1cc2n(CC(=O)Nc3ccc(F)cn3)c3c(c(=O)n2n1)CN(C1CCNC1)C3=O (single isomer, unassigned) [Example 277]
Result: 2.04

Q: Dear colleague, I am looking for the recorded log10(IC50) of the following compound: CCc1cc2n(CC(=O)Nc3ccc(F)cn3)c3c(c(=O)n2n1)CN(C(C)C)C3=O
Result: 1.88
